B1: HDV Ribozyme (parent)
chain: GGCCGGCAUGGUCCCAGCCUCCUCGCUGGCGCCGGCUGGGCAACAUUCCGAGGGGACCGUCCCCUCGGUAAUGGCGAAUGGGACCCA

- Variants of: B1
- PROTOCOL_DETAILS: self-cleavage, relative activity (ratio to wild type); higher = more cleavage; co-transcriptional
PROPERTY_MEASURED: self-cleavage
Answer field: number only, no words.

>  <VARIANT_STRING>
G11U A45C

>  <self-cleavage>
0.0841

$$$$

Sample C24U C75G ; self-cleavage observed: 0.119

The recorded self-cleavage for entry A16G G34U equals 0.324

Input C15U U72C . Output self-cleavage: 0.598

# variant G5A A83G ; its self-cleavage = 0.297

Notebook: U9A U20C , self-cleavage read as 0.128

Lookup result for G10U G35C ; measured self-cleavage: 0.0723

meta.source: the RNAGym collection of RNA variant scans (doi:10.7554/elife.80360)
